- target-under-test: HasAp (Pseudomonas aeruginosa, UniProt G3XD33)
- Sequence (G3XD33 entry or part of it): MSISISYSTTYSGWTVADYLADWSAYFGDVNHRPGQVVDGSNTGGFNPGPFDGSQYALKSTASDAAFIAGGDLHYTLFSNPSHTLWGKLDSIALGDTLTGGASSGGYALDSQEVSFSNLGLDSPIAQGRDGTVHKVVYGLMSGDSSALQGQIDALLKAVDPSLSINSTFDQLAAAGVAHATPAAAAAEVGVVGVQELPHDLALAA
- test: Binding affinity to HasAp by fluorescence quenching
- particulars: read-out: KD (nM), binding affinities of ligands to HasAp; fluorescence quenching; 1 μM apo-HasAp, 20 mM sodium phosphate pH 7.4, 25° C.
Some compounds, each annotated with its measured Kd.

[
  {
    "compound": "C=CC1=C(C)c2cc3[nH]c(cc4nc(cc5[nH]c(cc1n2)c(C)c5CCC(=O)O)C(CCC(=O)O)=C4C)c(C)c3C=C.[Ga+3]",
    "Kd [nM]": 280
  },
  {
    "compound": "Oc1ccccc1C=Nc1ccccc1N=Cc1ccccc1O.[Ga+3] [GaSal, GaSalophen Nitrate]",
    "Kd [nM]": 1110
  },
  {
    "compound": "C=CC1=C(C)c2cc3[nH]c(cc4nc(cc5[nH]c(cc1n2)c(C)c5CCC(=O)O)C(CCC(=O)O)=C4C)c(C)c3C=C.[Fe+3]",
    "Kd [nM]": 350
  }
]

Origin of values: patent US20230227476A1
